- target_entity: T1, recombinant human ZNRF3 extracellular domain (human, UniProt Q9ULT6 56-219)
- T1 construct: extracellular domain; also called huZNRF3; human ZNRF3 ECD
- T1 sequence (looked up): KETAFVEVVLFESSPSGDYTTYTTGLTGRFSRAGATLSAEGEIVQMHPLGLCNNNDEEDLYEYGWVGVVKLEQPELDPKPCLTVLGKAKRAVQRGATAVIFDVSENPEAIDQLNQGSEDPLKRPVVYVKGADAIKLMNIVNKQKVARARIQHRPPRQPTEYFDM
- test_details: SPR Biacore 8K; antibody captured on Protein A; ZNRF3 ECD analyte; 25 C
Assignment: determine reported pKd for the given binders.
On this scale, pKd is minus log10 of a concentration expressed in M (mol/L).

Data request: What value of pKd has been reported for the following binder? ZNRF3-331 (antibody, V domains shown, Rabbit clone; VH/VL only) VH: QSVEESGGRLVTPGTPLTLTCTVSGFSLSSYAMGWVRQAPGKGLEWIGIIYAGDTTYYASWAKGRFTISETSTTVDLKITSPTTEDTATYFCARKSDDDSDSYLLWGPGTLVTVSS VL: AYDMTQTPASVEVAVGGTVTIKCQASQSISSYLNWYQQKRGQPPKLLIYDASTLASGVPSRFSGSGSGTEFTLTISGVQCDDAATYYCQQGWSSTNIDNIFGGGTEVVVK
Data returned: 9.70

Data request: What value of pKd has been reported for the following binder? ZNRF3-131 (antibody, V domains shown, Rat clone; VH/VL only) VH: EVQVVESGGGLVQPGRSLKVSCAASGFTFSRYGMAWVRQAPTKGLEWVASISTGGENTYYRDSVKGRFTISRDNVKNTLYLQMDSLRSEDTATYYCARHGRVLNYFDYWGQGVMVTVSL VL: DIQMTQSPASLSASLGETVSIECLTSEDIYTYLAWYQQKPGKSPHLLIFAASRLQDGVPSRFSGSGSGTQYSLKISGMQPEDEGDYFCLQGSKFPYTFGAGTKLDLK
Data returned: 8.62

// provenance: patent US20240101708A1
